Test: Antioxidant activity assessed as inhibition of lipid peroxidation relative to control
Format: functional
Details: dose or concentration not given here
MEASURED_ATTRIBUTE: inhibition (%)
The reply should be a number in %, with the unit left off.

Below are worked cases with known answers.
Clc1ncnc2c1ncn2CC1CC(c2ccccc2)=NN1c1ccccc1 (stereo unspecified)
94
c1ccc(C2=NN(c3ccccc3)C(Cn3cnc4c(N5CCOCC5)ncnc43)C2)cc1 (stereo unspecified)
100
CC(C)(C)OC(=O)N1CCN(c2ncnc3c2ncn3CC2CC(c3ccccc3)=NN2c2ccccc2)CC1 (stereo unspecified)
54
Cc1ccc(N2N=C(c3ccccc3)CC2Cn2cnc3c(Cl)ncnc32)cc1 (stereo unspecified)
58
Cc1ccc(N2N=C(c3ccccc3)CC2Cn2cnc3c(N4CCCC4)ncnc32)cc1 (stereo unspecified)
49

Turning now to a further record.
The recorded inhibition for entry Cc1c(C)c2c(c(C)c1O)CCC(C)(C(=O)O)O2 (stereo unspecified) equals 64
